Some binders, each annotated with its measured pKd.
Target: T1, human TL1A (Fitzgerald #30R-AT070) (human, UniProt O95150 72-251, limits assumed)
T1 construct: Coated on the ELISA plate at 1 ug/mL; also called TNFSF15
T1 sequence (looked up): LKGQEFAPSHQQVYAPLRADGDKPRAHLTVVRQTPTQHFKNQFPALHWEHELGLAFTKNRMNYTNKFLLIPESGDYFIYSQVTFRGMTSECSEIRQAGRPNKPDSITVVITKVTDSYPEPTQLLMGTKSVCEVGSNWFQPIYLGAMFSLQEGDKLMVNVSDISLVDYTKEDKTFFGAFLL
Experiment: ELISA titration, coated human TL1A, culture supernatant
// returns pKd (minus log10 of molar concentration), number only

BINDER: A123 (antibody, human IgG1, V domains shown, human IgG1/kappa (pFuse vectors), culture supernatant) VH: QVQLVQSGAEVKKPGASVKVSCKASGFDIQDTYMHWVRQRPGQGLEWIGRIDPASGHTKYDPKFQVRVTITRDTSTSTAYLELSSLRSEDTAVYYCARSGGLPDVWGQGTTVTVSS VL: EIVLTQSPGTLSLSPGERATLSCRASSSVSYMYWYQQKPGQAPRLLIYATSNLASGIPDRFSGSGSGTDFTLTISRLEPEDFAVYYCQQWKGNPRTFGGGTKLEIK
pKd: 9.98
//
BINDER: A86 (antibody, human IgG1, V domains shown, human IgG1/kappa (pFuse vectors), culture supernatant) VH: QVQLVQSGAEVKKPGASVKVSCKASGFDIQDTYMHWVRQAPGQGLEWMGRIEPASGHIKYDPKFQGRVTMTRDTSTSTVYMELSSLRSEDTAVYYCARSGGLPDWWGQGTTVTVSS VL: EIVLTQSPGTLSLSPGERATLSCRASSSVSYMYWYQQKPGQAPRLLIYATSNLASGIPDRFSGSGSGTDYTLTISRLEPEDFAVYYCQQWEGNPRTFGGGTKLEIK
pKd: 9.89

get_value(item= A110 (antibody, human IgG1, V domains shown, human IgG1/kappa (pFuse vectors), culture supernatant) VH: QVQLVQSGAEVKKPGASVKVSCKASGFDIQDTYMHWVKQAPGQGLEWMGRIEPASGHIKYDPKFQGRVTMTRDTSTSTVYMELSSLRSEDTAVYYCARSGGLPDWWGQGTTVTVSS VL: EIVLTQSPGTLSLSPGERATLSCRASSSVSYMYWYQQKPGQAPRPWIYATSNLASGIPDRFSGSGSGTDFTLTISRLEPEDFAVYYCQQWEGNPRTFGGGTKLEIK , readout=pKd) returns 10.25
